assay.details: self-splicing fitness, log relative to wild type (ln ratio); higher = more splicing; Tetrahymena group I intron in knt gene, E. coli kanamycin selection, DiMSum; sequences stand for … in CUCUCU…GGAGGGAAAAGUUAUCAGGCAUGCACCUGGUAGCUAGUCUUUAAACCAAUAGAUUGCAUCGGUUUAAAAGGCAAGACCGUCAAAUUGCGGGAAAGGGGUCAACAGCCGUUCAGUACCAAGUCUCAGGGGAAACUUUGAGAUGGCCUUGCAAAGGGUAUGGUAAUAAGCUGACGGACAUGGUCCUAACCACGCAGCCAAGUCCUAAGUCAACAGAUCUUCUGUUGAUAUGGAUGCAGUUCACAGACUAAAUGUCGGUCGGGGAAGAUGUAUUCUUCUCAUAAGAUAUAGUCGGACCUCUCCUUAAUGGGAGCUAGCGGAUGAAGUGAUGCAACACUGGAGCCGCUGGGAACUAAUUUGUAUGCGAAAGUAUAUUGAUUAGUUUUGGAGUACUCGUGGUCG;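 also: selection with 25 µg/mL kanamycin versus none on LB agar overnight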
test.settings: 30 °C
sequences and their reported self-splicing fitness (ln)
Reply with just the number.

These recorded examples may help you get a feel for the data.
construct.sequence: UUUAAGCAAUAUUACGAGCC
value.observed: -1.83
//
construct.sequence: CUCUAGCAAUAUUACGGUCC
value.observed: -2.84
//
construct.sequence: GCGCAGCAAUAUUACGUUUA
value.observed: -1.01
//
construct.sequence: CACUAGCAAUAUUACGAAGA
value.observed: -3.05
//
construct.sequence: GUUAAGCAAUAUUACGGAAU
value.observed: -2.75

Prompt: Consider the sequence shown here: ACGAAGCAAUAUUACGGUCA What is its recorded self-splicing fitness (ln)?
Completion: -1.35

Prompt: Consider the sequence shown here: GUUAAGCAAUAUUACGGUAA What is its recorded self-splicing fitness (ln)?
Completion: -1.5

Prompt: Consider the sequence shown here: GGCGAGCAAUAUUACGAUAA What is its recorded self-splicing fitness (ln)?
Completion: -1.64
